Just for reference, ChEMBL document CHEMBL1145225 is where these values come from.

test system: KB-V (P-gp-expressing MDR KB subclone); assay: Percentage inhibition of multi drug resistant KB subclone growth expressing P-glycoprotein (KB-V) at 4 ug/mL concentration was determined; settings: Homo sapiens, KB-V
Measurement name: inhibition at 4 µg/mL (%)
Give the number; % is assumed, so skip it.

KB-V (P-gp-expressing MDR KB subclone) assay, compound `COc1cc2c(c(OC)c1O)-c1ccc(SC)c(=O)cc1[C@@H](NC(C)=O)CC2` , recorded inhibition at 4 µg/mL = 56

KB-V (P-gp-expressing MDR KB subclone) assay, compound COc1cc2c(c(OC)c1OC(=O)CN(C)C)-c1ccc(SC)c(=O)cc1C(NC(C)=O)CC2 (single isomer, unassigned; 5) , recorded inhibition at 4 µg/mL = 45

KB-V (P-gp-expressing MDR KB subclone) assay, compound `COc1cc2c(c(OC)c1OC(=O)CN(C)C)-c1ccc(OC)c(=O)cc1[C@@H](NC(C)=O)CC2` , recorded inhibition at 4 µg/mL = 5

KB-V (P-gp-expressing MDR KB subclone) assay, compound `COc1cc2c(c(OC)c1O)-c1ccc(OC)c(=O)cc1[C@@H](NC(C)=O)CC2` , recorded inhibition at 4 µg/mL = 24

====

assay: In vitro cytotoxic activity against human ovarian carcinoma (1A9) tumor cell line
Task for the reader: assign each of the following compounds its reported IC50.
// unit must come after the numeric part

Given item `COc1cc2c(c(OC)c1O)-c1ccc(SC)c(=O)cc1[C@@H](NC(C)=O)CC2` , the value recorded as its IC50 is 0.01 µg/mL

Given item `COc1cc2c(c(OC)c1OC(=O)CN(C)C)-c1ccc(OC)c(=O)cc1[C@@H](NC(C)=O)CC2.O=C(O)C(O)C(O)C(=O)O` , the value recorded as its IC50 is 0.11 µg/mL

Given item COc1cc2c(c(OC)c1OC(=O)CN(C)C)-c1ccc(SC)c(=O)cc1C(NC(C)=O)CC2 (single isomer, unassigned; 5) , the value recorded as its IC50 is 0.05 µg/mL

Given item COc1cc2c(c(OC)c1OC(=O)CN(C)C)-c1ccc(SC)c(=O)cc1C(NC(C)=O)CC2.O=C(O)C(O)C(O)C(=O)O (single isomer, unassigned; 5a) , the value recorded as its IC50 is 0.01 µg/mL

Given item `COc1cc2c(c(OC)c1O)-c1ccc(OC)c(=O)cc1[C@@H](NC(C)=O)CC2` , the value recorded as its IC50 is 0.1 µg/mL

Given item `COc1cc2c(c(OC)c1OC(=O)CN(C)C)-c1ccc(OC)c(=O)cc1[C@@H](NC(C)=O)CC2` , the value recorded as its IC50 is 0.04 µg/mL

Given item `COc1cc2c(c(OC)c1OC)-c1ccc(=O)c(O)cc1[C@@H](NC(C)=O)CC2` , the value recorded as its IC50 is 0.003 µg/mL
